# Test system: Vesicular stomatitis virus
# Assay summary: Antiviral activity against Vesicular stomatitis virus infected African green monkey Vero 76 cells assessed as reduction in plaque number treated after viral infection measured after 2 days by plaque reduction assay
# Type: functional, organism-based
# Experimental setup: 48 h
pEC50: −log10 of the molar value.
Assay endpoint: pEC50

q: Entry `c1ccc(Oc2cccc(-c3nnc4nnc5c6ccccc6[nH]c5n34)c2)cc1` has what pEC50?
a: < 4.10

q: Also, `c1ccc(-c2nnc3nnc4c5ccccc5[nH]c4n23)cc1` please.
a: < 4.00

q: Also, `O=[N+]([O-])c1cccc(-c2nnc3nnc4c5ccccc5[nH]c4n23)c1` please.
a: < 4.00

====

# System: Coxsackievirus B2
# Assay summary: Antiviral activity against Human coxsackievirus B2 infected in African green monkey Vero 76 cells assessed as reduction in plaque number treated after viral infection measured after 3 days by plaque reduction assay
# Type: functional, organism-based
# Experimental setup: Enterovirus B, 72 h
Assay endpoint: EC50

{"Molecular string": "COc1ccc(-c2nnc3nnc4c5ccccc5[nH]c4n23)cc1OC", "EC50": "> 100 µM"}
{"Molecular string": "c1ccc(-c2nnc3nnc4c5ccccc5[nH]c4n23)cc1", "EC50": "> 100 µM"}
{"Molecular string": "c1ccc2c(-c3nnc4nnc5c6ccccc6[nH]c5n34)c3ccccc3cc2c1", "EC50": "> 100 µM"}
{"Molecular string": "CSc1ccc(-c2nnc3nnc4c5ccccc5[nH]c4n23)cc1", "EC50": "> 90 µM"}

q: Return EC50 measured with Coxsackievirus B2 given this compound: `Fc1ccc(-c2nnc3nnc4c5ccccc5[nH]c4n23)cc1`
a: > 100 µM

q: Also, `Oc1ccccc1-c1nnc2nnc3c4ccccc4[nH]c3n12` please.
a: > 70 µM

q: Also, `COc1ccc(OC)c(-c2nnc3nnc4c5ccccc5[nH]c4n23)c1` please.
a: > 15 µM

q: Also, `O=[N+]([O-])c1cccc(-c2nnc3nnc4c5ccccc5[nH]c4n23)c1` please.
a: > 100 µM

====

Each entry below lists one item and its recorded pEC50 value.
# Test system: Bovine viral diarrhea virus 1
# Assay summary: Antiviral activity against Bovine viral diarrhea virus 1 infected bovine MDBK cells assessed as protection against virus-induced cytopathogenicity treated 1 hr after viral infection measured after 3-4 days by MTT method
# Format: functional, organism-based
# Experimental setup: Bovine viral diarrhea virus isolates and strains
pEC50: −log10 of the molar value.

Illustrative cases are given below, each with its answer.
{"Molecular string": "O=[N+]([O-])c1ccc(-c2nnc3nnc4c5ccccc5[nH]c4n23)cc1", "Endpoint result": "< 4.00"}
{"Molecular string": "COc1ccc(OC)c(-c2nnc3nnc4c5ccccc5[nH]c4n23)c1", "Endpoint result": "< 4.92"}
{"Molecular string": "Clc1ccccc1-c1nnc2nnc3c4ccccc4[nH]c3n12", "Endpoint result": "< 4.00"}
{"Molecular string": "Brc1cccc(-c2nnc3nnc4c5ccccc5[nH]c4n23)c1", "Endpoint result": "< 4.00"}

q: Entry `Clc1cccc(-c2nnc3nnc4c5ccccc5[nH]c4n23)c1` has what pEC50?
a: 4.16

====

Each entry below lists one item and its recorded EC50 value.
# Test system: Vesicular stomatitis virus
# Assay summary: Antiviral activity against Vesicular stomatitis virus infected African green monkey Vero 76 cells assessed as reduction in plaque number treated after viral infection measured after 2 days by plaque reduction assay
# Type: functional, organism-based
# Experimental setup: 48 h

Illustrative cases are given below, each with its answer.
{"Molecular string": "O=[N+]([O-])c1ccc(-c2nnc3nnc4c5ccccc5[nH]c4n23)cc1", "Endpoint result": "> 100 µM"}
{"Molecular string": "COc1ccc(OC)c(-c2nnc3nnc4c5ccccc5[nH]c4n23)c1", "Endpoint result": "> 15 µM"}
{"Molecular string": "Clc1cccc(-c2nnc3nnc4c5ccccc5[nH]c4n23)c1", "Endpoint result": "> 60 µM"}
{"Molecular string": "COc1ccc(-c2nnc3nnc4c5ccccc5[nH]c4n23)cc1OC", "Endpoint result": "> 100 µM"}
{"Molecular string": "Cc1ccc(-c2nnc3nnc4c5ccccc5[nH]c4n23)cc1", "Endpoint result": "> 100 µM"}

q: Entry `Clc1ccc(-c2nnc3nnc4c5ccccc5[nH]c4n23)cc1` has what EC50?
a: > 100 µM

q: Also, `Oc1ccc(-c2nnc3nnc4c5ccccc5[nH]c4n23)cc1` please.
a: > 100 µM

q: Also, `O=[N+]([O-])c1ccccc1-c1nnc2nnc3c4ccccc4[nH]c3n12` please.
a: > 100 µM

q: Also, `Oc1cccc(-c2nnc3nnc4c5ccccc5[nH]c4n23)c1` please.
a: > 100 µM

q: Also, `COc1cc(-c2nnc3nnc4c5ccccc5[nH]c4n23)ccc1O` please.
a: > 80 µM

q: Also, `COc1cccc(-c2nnc3nnc4c5ccccc5[nH]c4n23)c1` please.
a: > 65 µM

q: Also, `Clc1ccccc1-c1nnc2nnc3c4ccccc4[nH]c3n12` please.
a: > 100 µM

q: Also, `Fc1ccc(-c2nnc3nnc4c5ccccc5[nH]c4n23)cc1` please.
a: > 100 µM

q: Also, `COc1ccccc1-c1nnc2nnc3c4ccccc4[nH]c3n12` please.
a: > 20 µM

q: Also, `COc1ccc(-c2nnc3nnc4c5ccccc5[nH]c4n23)cc1` please.
a: > 100 µM

q: Also, `CSc1ccc(-c2nnc3nnc4c5ccccc5[nH]c4n23)cc1` please.
a: > 90 µM
